Biological target: T1, CBD-toxin A-Fc (Clostridium difficile, UniProt P16154 1848-2710)
T1 construct: also called CBD-A; C-term Toxin A
Test: SPR Biacore, mAb captured, 100 nM CBD-A-Fc flowed
outcome measure: binding (RU)

{"binder": "H1H3354P (antibody, V domains shown) VH: QVQLQQSGPGLVKPSQTLSLTCAISGDSVSSNSAAWNWIRQSPSRGLEWLGRTYYRSKWYHDYAFSVKSRILINPDTSKNLFSLQVNSVTPEDTAVYYCARDRRSYFDYWGQGTLVTVSS VL: EIVLTQSPATLSLSPGERATLSCRASRSVSSSLAWYQQKPGQAPRLLIYDASNRATGIPARFSGGGSGTDFTLTISSLEPEDFAVYYCQQRNNWPPTFGQGTKLEIKR", "numeric result": -19}
{"binder": "H1H3344P (antibody, V domains shown) VH: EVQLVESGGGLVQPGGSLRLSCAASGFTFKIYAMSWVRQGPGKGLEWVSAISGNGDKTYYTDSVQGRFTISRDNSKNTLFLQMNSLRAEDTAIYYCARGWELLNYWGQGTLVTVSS VL: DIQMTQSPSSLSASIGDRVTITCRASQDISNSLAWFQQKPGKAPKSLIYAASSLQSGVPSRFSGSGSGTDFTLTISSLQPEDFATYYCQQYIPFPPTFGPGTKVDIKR", "numeric result": 5}
